Test: Covalent reversible inhibition of Leishmania cysteine protease B using Z-Phe-Arg-7-amido-4-methylcoumarin as substrate incubated for 2 mins followed by substrate addition by fluorescence assay
reported-endpoint: pKi

• N#CC1(NC(=O)[C@@H](Cc2ccccc2)N[C@H](c2ccccc2)C(F)(F)F)CC1 = 5.11
• COc1ccc([C@H](N[C@@H](Cc2ccccc2)C(=O)NC2(C#N)CC2)C(F)(F)F)cc1 = 5.5
• N#CC1(NC(=O)[C@@H](Cc2ccccc2)N[C@H](c2ccc(Br)cc2)C(F)(F)F)CC1 = 6.1
• N#CC1(NC(=O)[C@H](Cc2ccccc2)N[C@H](c2ccccc2)C(F)(F)F)CC1 = 5.85
